System: mRNA expressed from the genes (A) to (D) in rat liver
Test: Behavior of genes (mRNA expression level, oligo-DNA microarray) in rat liver after 28-day oral administration
Format: in vivo
Details: rat, in vivo
Protocol: A test solution was prepared by dissolving each of the carcinogens and the non-carcinogens shown in Tables 2 to 6 in the corresponding solvent shown in Tables 2 to 6. […] The case where the expression level of mRNA in the carcinogen administration group or the non-carcinogen administration group is 1.5 times or more or 1/1.5 or less of the expression level of the corresponding mRNA expressed in the control group was determined to be significant. […]
MEASUREMENT TYPE: Behavior of gene caused by administration of chemical substance, Gene No. 1163

Cl[C@H]1[C@H](Cl)[C@@H](Cl)[C@@H](Cl)[C@H](Cl)[C@H]1Cl: −
CC(=O)Nc1ccc(C(=O)CCl)cc1 [TS072, 4-(Chloroacetyl)acetanilide]: +
Cc1c(C)c2c(c(C)c1O)CC[C@@](C)(CCC[C@H](C)CCC[C@H](C)CCCC(C)C)O2: +
Cl[C@H]1[C@H](Cl)[C@H](Cl)[C@@H](Cl)[C@H](Cl)[C@H]1Cl: −
